Assayed Target: Bombesin receptor subtype-3 (Mus musculus, UniProt O54798)
Assay Text: Agonistic activity at mouse BRS3 expressed in HEK293AEO cells by aequorin bioluminescence assay
pEC50: −log10 of the molar value.
Attribute Measured: pEC50

{"Compound": "CCCCc1cnc(C(CCCC)Cc2ccc(-c3ccccc3C(=O)O)cc2)[nH]1 (centres undefined)", "pEC50": 6.28}

(A) CCC(C)(CC)Cc1cnc(CCc2ccc(-c3ccccc3C(=O)O)cc2)[nH]1
(B) CC(C)(C)c1cnc(CCc2ccc(-c3ccccc3C(=O)O)cc2)[nH]1
Q. Which value of pEC50 is numerically greater: that of A or that of B ? Kindly state the label of the option you pick.
A. A

(a) O=C(O)c1ccccc1-c1ccc(CCc2ncc(C3CCCCC3)[nH]2)cc1
(b) O=C(O)c1ccccc1-c1ccc(CCc2ncc(CC3CCCC3)[nH]2)cc1
Q. Of a and b , whose reported pEC50 is the larger number? Identify your selection by its label.
A. b
(b: 8.10, a: 7.83)

(1) Cc1ccccc1Cc1cnc(CCc2ccc(-c3ccccc3C(=O)O)cc2)[nH]1
(2) O=C(O)c1ccccc1-c1ccc(CCc2ncc(CC3CC3)[nH]2)cc1
Q. Compare 1 and 2 by numeric pEC50 and name the larger one. Please identify the chosen entry by its label.
A. 1
(1: 8.03, 2: 7.14)

(1) O=C(O)c1ccccc1-c1ccc(CCc2ncc(Cc3cccc(F)c3)[nH]2)cc1
(2) CCCCc1cnc(C(CCCO)Cc2ccc(-c3ccccc3C(=O)O)cc2)[nH]1 (centres undefined)
(3) N#Cc1ccc(Cc2cnc(CCc3ccc(-c4ccccc4C(=O)O)cc3)[nH]2)cc1
(4) O=C(O)c1ccccc1-c1ccc(CCc2ncc(Cc3ccc(Cl)cc3)[nH]2)cc1
(5) CCCCc1cnc(C(Cc2ccc(-c3ccccc3C(=O)O)cc2)C(C)C)[nH]1 (centres undefined)
Q. Hey, can you sort those compounds up there by pEC50, smallest first? Use the labels to give the ranking in the order requested.
A. 5, 3, 2, 4, 1
(5: 5.65, 3: 6.14, 2: 6.62, 4: 6.99, 1: 8.10)

(I) O=C(O)c1ccccc1-c1ccc(CCc2ncc(Cc3ccccc3)[nH]2)cc1
(II) O=C(O)c1ccccc1-c1ccc(CCc2ncc(CC3CCCCCC3)[nH]2)cc1
Q. Compare I and II by numeric pEC50 and name the larger one. To answer, give the label that identifies your chosen option.
A. II

###

Assayed Target: Bombesin receptor subtype-3 (Mus musculus)
Sequence (O54798 whole entry): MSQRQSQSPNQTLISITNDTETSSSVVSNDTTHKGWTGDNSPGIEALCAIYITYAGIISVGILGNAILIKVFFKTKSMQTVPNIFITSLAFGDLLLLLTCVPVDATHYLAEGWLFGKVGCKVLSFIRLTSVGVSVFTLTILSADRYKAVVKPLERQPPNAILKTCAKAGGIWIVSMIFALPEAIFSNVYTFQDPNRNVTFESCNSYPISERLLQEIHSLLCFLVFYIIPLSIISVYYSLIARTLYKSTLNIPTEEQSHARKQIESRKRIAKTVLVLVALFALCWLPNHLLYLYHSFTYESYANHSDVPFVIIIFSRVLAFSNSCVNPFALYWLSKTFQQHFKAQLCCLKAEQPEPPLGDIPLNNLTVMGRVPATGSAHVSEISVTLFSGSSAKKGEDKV
Assay Text: Agonistic activity at mouse BRS3 expressed in HEK293AEO cells by aequorin bioluminescence assay
Attribute Measured: EC50 (nM)

These recorded examples may help you get a feel for the data.
{"Smiles Notation": "CCC(C)(C)Cc1c[nH]c(CCc2ccc(-c3ccccc3C(=O)O)cc2)n1", "Attribute Measured": "EC50", "Units Symbol": "nM", "Endpoint Value": 9.6}
{"Smiles Notation": "CCCCc1cnc(CCc2ccc(-c3ccccc3C(=O)O)cc2)[nH]1", "Attribute Measured": "EC50", "Units Symbol": "nM", "Endpoint Value": 93}
{"Smiles Notation": "COc1ccccc1Cc1cnc(CCc2ccc(-c3ccccc3C(=O)O)cc2)[nH]1", "Attribute Measured": "EC50", "Units Symbol": "nM", "Endpoint Value": 163}
{"Smiles Notation": "CCCCc1cnc(CCCc2ccc(-c3ccccc3C(=O)O)cc2)[nH]1", "Attribute Measured": "EC50", "Units Symbol": "nM", "Endpoint Value": 382}
{"Smiles Notation": "COc1cccc(Cc2cnc(CCc3ccc(-c4ccccc4C(=O)O)cc3)[nH]2)c1", "Attribute Measured": "EC50", "Units Symbol": "nM", "Endpoint Value": 79}
{"Smiles Notation": "CC(C)(C)CCc1cnc(CCc2ccc(-c3ccccc3C(=O)O)cc2)[nH]1", "Attribute Measured": "EC50", "Units Symbol": "nM", "Endpoint Value": 6.2}

(a) O=C(O)c1ccccc1-c1ccc(CCc2ncc(CC3CCOCC3)[nH]2)cc1
(b) Cc1cccc(Cc2cnc(CCc3ccc(-c4ccccc4C(=O)O)cc3)[nH]2)c1
Q. Which value of EC50 is numerically greater: that of a or that of b ? Provide the label of your selected option as the answer.
A. b

(I) O=C(O)c1ccccc1-c1ccc(CCc2ncc(CCC3CCCCC3)[nH]2)cc1
(II) CC(C)(C)Cc1cnc(CCc2ccc(-c3ccccc3C(=O)O)cc2)[nH]1
Q. Consider entries I and II . Which has the numerically lower EC50? // return label of chosen record
A. II

(I) O=C(O)c1ccccc1-c1ccc(CCc2ncc(Cc3ccc(F)cc3)[nH]2)cc1
(II) N#Cc1cccc(Cc2cnc(CCc3ccc(-c4ccccc4C(=O)O)cc3)[nH]2)c1
Q. Of the two listed items, I and II , which carries the larger EC50 figure? Selection: enter the item's label.
A. I
